Origin of the recorded values: BigSolDB 2.1

Assay setup: in water, 293.16 K
Measurement label: solubility (mole fraction)
Answers are plain numbers.

[Q] Given Cc1nc2n(c(=O)c1CCN1CCC(c3noc4cc(F)ccc34)CC1)CCCC2 , state its recorded solubility (mole fraction).
[A] 8.15e-08

* * *

Assay setup: in methanol, 328.15 K
Measurement label: solubility (mole fraction)
Give bare numbers.

[Q] Given Cc1nc2n(c(=O)c1CCN1CCC(c3noc4cc(F)ccc34)CC1)CCCC2 , state its recorded solubility (mole fraction).
[A] 0.0148

* * *

Assay setup: in water, 323.15 K
Measurement label: solubility (mole fraction)
Give bare numbers.

[Q] Given Cc1nc2n(c(=O)c1CCN1CCC(c3noc4cc(F)ccc34)CC1)CCCC2 , state its recorded solubility (mole fraction).
[A] 3.81e-07

* * *

Assay setup: in ethanol, 308.15 K
Measurement label: solubility (mole fraction)
Numbers only.

[Q] Given Cc1nc2n(c(=O)c1CCN1CCC(c3noc4cc(F)ccc34)CC1)CCCC2 , state its recorded solubility (mole fraction).
[A] 0.0035

* * *

Assay setup: in methanol, 323.15 K
Measurement label: solubility (mole fraction)

[Q] Given Cc1nc2n(c(=O)c1CCN1CCC(c3noc4cc(F)ccc34)CC1)CCCC2 , state its recorded solubility (mole fraction).
[A] 0.0121

* * *

Assay setup: in methanol, 318.16 K
Measurement label: solubility (mole fraction)
One number for each entry.

[Q] Given Cc1nc2n(c(=O)c1CCN1CCC(c3noc4cc(F)ccc34)CC1)CCCC2 , state its recorded solubility (mole fraction).
[A] 0.0101

* * *

Assay setup: in water, 303.15 K
Measurement label: solubility (mole fraction)
One number for each entry.

[Q] Given Cc1nc2n(c(=O)c1CCN1CCC(c3noc4cc(F)ccc34)CC1)CCCC2 , state its recorded solubility (mole fraction).
[A] 1.38e-07

* * *

Assay setup: in water, 313.16 K
Measurement label: solubility (mole fraction)
Numbers only.

[Q] Given Cc1nc2n(c(=O)c1CCN1CCC(c3noc4cc(F)ccc34)CC1)CCCC2 , state its recorded solubility (mole fraction).
[A] 2.38e-07

* * *

Assay setup: in water, 318.16 K
Measurement label: solubility (mole fraction)
One number for each entry.

[Q] Given Cc1nc2n(c(=O)c1CCN1CCC(c3noc4cc(F)ccc34)CC1)CCCC2 , state its recorded solubility (mole fraction).
[A] 2.91e-07

* * *

Assay setup: in ethanol, 293.15 K
Measurement label: solubility (mole fraction)
Numbers only.

[Q] Given Cc1nc2n(c(=O)c1CCN1CCC(c3noc4cc(F)ccc34)CC1)CCCC2 , state its recorded solubility (mole fraction).
[A] 0.0017

* * *

Assay setup: in methanol, 318.15 K
Measurement label: solubility (mole fraction)
Answers are plain numbers.

[Q] Given Cc1nc2n(c(=O)c1CCN1CCC(c3noc4cc(F)ccc34)CC1)CCCC2 , state its recorded solubility (mole fraction).
[A] 0.0101

* * *

Assay setup: in methanol, 288.15 K
Measurement label: solubility (mole fraction)
Numbers only.

[Q] Given Cc1nc2n(c(=O)c1CCN1CCC(c3noc4cc(F)ccc34)CC1)CCCC2 , state its recorded solubility (mole fraction).
[A] 0.00294

* * *

Assay setup: in water, 288.15 K
Measurement label: solubility (mole fraction)
One number for each entry.

[Q] Given Cc1nc2n(c(=O)c1CCN1CCC(c3noc4cc(F)ccc34)CC1)CCCC2 , state its recorded solubility (mole fraction).
[A] 6.24e-08

* * *

Assay setup: in methanol, 323.16 K
Measurement label: solubility (mole fraction)
Give bare numbers.

[Q] Given Cc1nc2n(c(=O)c1CCN1CCC(c3noc4cc(F)ccc34)CC1)CCCC2 , state its recorded solubility (mole fraction).
[A] 0.0121

* * *

Assay setup: in water, 308.16 K
Measurement label: solubility (mole fraction)
Give bare numbers.

[Q] Given Cc1nc2n(c(=O)c1CCN1CCC(c3noc4cc(F)ccc34)CC1)CCCC2 , state its recorded solubility (mole fraction).
[A] 1.83e-07

* * *

Assay setup: in water, 283.15 K
Measurement label: solubility (mole fraction)
One number for each entry.

[Q] Given Cc1nc2n(c(=O)c1CCN1CCC(c3noc4cc(F)ccc34)CC1)CCCC2 , state its recorded solubility (mole fraction).
[A] 4.63e-08

* * *

Assay setup: in methanol, 288.16 K
Measurement label: solubility (mole fraction)
Numbers only.

[Q] Given Cc1nc2n(c(=O)c1CCN1CCC(c3noc4cc(F)ccc34)CC1)CCCC2 , state its recorded solubility (mole fraction).
[A] 0.00294

* * *

Assay setup: in ethanol, 298.15 K
Measurement label: solubility (mole fraction)
Give bare numbers.

[Q] Given Cc1nc2n(c(=O)c1CCN1CCC(c3noc4cc(F)ccc34)CC1)CCCC2 , state its recorded solubility (mole fraction).
[A] 0.00216

* * *

Assay setup: in methanol, 328.16 K
Measurement label: solubility (mole fraction)
Answers are plain numbers.

[Q] Given Cc1nc2n(c(=O)c1CCN1CCC(c3noc4cc(F)ccc34)CC1)CCCC2 , state its recorded solubility (mole fraction).
[A] 0.0148

* * *

Assay setup: in methanol, 293.16 K
Measurement label: solubility (mole fraction)

[Q] Given Cc1nc2n(c(=O)c1CCN1CCC(c3noc4cc(F)ccc34)CC1)CCCC2 , state its recorded solubility (mole fraction).
[A] 0.00363

* * *

Assay setup: in ethanol, 288.16 K
Measurement label: solubility (mole fraction)
Numbers only.

[Q] Given Cc1nc2n(c(=O)c1CCN1CCC(c3noc4cc(F)ccc34)CC1)CCCC2 , state its recorded solubility (mole fraction).
[A] 0.00138

* * *

Assay setup: in methanol, 303.16 K
Measurement label: solubility (mole fraction)
One number for each entry.

[Q] Given Cc1nc2n(c(=O)c1CCN1CCC(c3noc4cc(F)ccc34)CC1)CCCC2 , state its recorded solubility (mole fraction).
[A] 0.00546

* * *

Assay setup: in methanol, 283.15 K
Measurement label: solubility (mole fraction)
Give bare numbers.

[Q] Given Cc1nc2n(c(=O)c1CCN1CCC(c3noc4cc(F)ccc34)CC1)CCCC2 , state its recorded solubility (mole fraction).
[A] 0.00239

* * *

Assay setup: in water, 293.15 K
Measurement label: solubility (mole fraction)
Numbers only.

[Q] Given Cc1nc2n(c(=O)c1CCN1CCC(c3noc4cc(F)ccc34)CC1)CCCC2 , state its recorded solubility (mole fraction).
[A] 8.15e-08

* * *

Assay setup: in water, 323.16 K
Measurement label: solubility (mole fraction)
Give bare numbers.

[Q] Given Cc1nc2n(c(=O)c1CCN1CCC(c3noc4cc(F)ccc34)CC1)CCCC2 , state its recorded solubility (mole fraction).
[A] 3.81e-07

* * *

Assay setup: in methanol, 298.16 K
Measurement label: solubility (mole fraction)
Answers are plain numbers.

[Q] Given Cc1nc2n(c(=O)c1CCN1CCC(c3noc4cc(F)ccc34)CC1)CCCC2 , state its recorded solubility (mole fraction).
[A] 0.00443

* * *

Assay setup: in water, 298.16 K
Measurement label: solubility (mole fraction)
Give bare numbers.

[Q] Given Cc1nc2n(c(=O)c1CCN1CCC(c3noc4cc(F)ccc34)CC1)CCCC2 , state its recorded solubility (mole fraction).
[A] 1.08e-07

* * *

Assay setup: in ethanol, 288.15 K
Measurement label: solubility (mole fraction)

[Q] Given Cc1nc2n(c(=O)c1CCN1CCC(c3noc4cc(F)ccc34)CC1)CCCC2 , state its recorded solubility (mole fraction).
[A] 0.00138

* * *

Assay setup: in ethanol, 313.15 K
Measurement label: solubility (mole fraction)
Numbers only.

[Q] Given Cc1nc2n(c(=O)c1CCN1CCC(c3noc4cc(F)ccc34)CC1)CCCC2 , state its recorded solubility (mole fraction).
[A] 0.00438

* * *

Assay setup: in ethanol, 283.15 K
Measurement label: solubility (mole fraction)
Give bare numbers.

[Q] Given Cc1nc2n(c(=O)c1CCN1CCC(c3noc4cc(F)ccc34)CC1)CCCC2 , state its recorded solubility (mole fraction).
[A] 0.00105

* * *

Assay setup: in methanol, 308.16 K
Measurement label: solubility (mole fraction)

[Q] Given Cc1nc2n(c(=O)c1CCN1CCC(c3noc4cc(F)ccc34)CC1)CCCC2 , state its recorded solubility (mole fraction).
[A] 0.00674

* * *

Assay setup: in water, 313.15 K
Measurement label: solubility (mole fraction)
Numbers only.

[Q] Given Cc1nc2n(c(=O)c1CCN1CCC(c3noc4cc(F)ccc34)CC1)CCCC2 , state its recorded solubility (mole fraction).
[A] 2.38e-07
